Taken from ChEMBL document CHEMBL2218924.

Tested target: Epidermal growth factor receptor (Homo sapiens) (UniProt P00533)
Sequence (P00533 whole entry): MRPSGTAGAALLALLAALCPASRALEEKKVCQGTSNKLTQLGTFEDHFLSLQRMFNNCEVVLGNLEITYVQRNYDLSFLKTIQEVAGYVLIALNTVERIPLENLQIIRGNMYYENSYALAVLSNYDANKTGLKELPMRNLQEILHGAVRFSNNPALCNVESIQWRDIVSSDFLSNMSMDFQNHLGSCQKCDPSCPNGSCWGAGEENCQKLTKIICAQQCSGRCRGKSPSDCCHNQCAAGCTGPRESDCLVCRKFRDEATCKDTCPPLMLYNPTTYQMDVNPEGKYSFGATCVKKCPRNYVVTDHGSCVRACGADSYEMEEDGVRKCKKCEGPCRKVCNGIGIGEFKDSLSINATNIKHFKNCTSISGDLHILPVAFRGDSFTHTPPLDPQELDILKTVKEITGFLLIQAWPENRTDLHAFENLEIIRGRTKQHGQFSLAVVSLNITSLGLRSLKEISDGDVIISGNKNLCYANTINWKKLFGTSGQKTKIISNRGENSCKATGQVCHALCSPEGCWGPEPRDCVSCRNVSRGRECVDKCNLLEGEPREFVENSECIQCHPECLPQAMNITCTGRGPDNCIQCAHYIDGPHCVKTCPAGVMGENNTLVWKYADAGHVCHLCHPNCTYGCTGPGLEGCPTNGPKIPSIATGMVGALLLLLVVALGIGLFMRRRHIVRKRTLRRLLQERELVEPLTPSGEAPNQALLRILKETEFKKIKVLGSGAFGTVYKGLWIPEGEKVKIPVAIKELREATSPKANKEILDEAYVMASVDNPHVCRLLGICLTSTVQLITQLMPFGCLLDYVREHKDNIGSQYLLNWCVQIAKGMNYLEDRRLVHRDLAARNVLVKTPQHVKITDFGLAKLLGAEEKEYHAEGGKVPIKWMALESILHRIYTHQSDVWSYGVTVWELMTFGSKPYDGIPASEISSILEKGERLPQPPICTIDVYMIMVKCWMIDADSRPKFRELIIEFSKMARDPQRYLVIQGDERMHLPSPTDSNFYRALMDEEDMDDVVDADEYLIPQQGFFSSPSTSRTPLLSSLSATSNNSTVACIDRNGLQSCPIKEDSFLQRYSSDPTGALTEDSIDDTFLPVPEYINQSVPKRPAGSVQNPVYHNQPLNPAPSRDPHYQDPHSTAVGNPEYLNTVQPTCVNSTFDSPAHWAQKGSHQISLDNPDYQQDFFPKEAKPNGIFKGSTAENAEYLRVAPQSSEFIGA
Experimental parameters: at 1 µM
Measured quantity: residual activity (%)

smiles_repr=CC(C)n1cnc2c(NCc3ccccc3)nc(NCCCO)nc21 observed=-1
smiles_repr=O=C1NC(=O)/C(=C\c2ccc3nccnc3c2)S1 observed=100
smiles_repr=NC(=O)c1ccc2[nH]c(-c3ccc(Oc4ccc(Cl)cc4)cc3)nc2c1 observed=111

====

Tested target: Tyrosine-protein kinase receptor TYRO3 (Homo sapiens) (UniProt Q06418)
Sequence (whole entry): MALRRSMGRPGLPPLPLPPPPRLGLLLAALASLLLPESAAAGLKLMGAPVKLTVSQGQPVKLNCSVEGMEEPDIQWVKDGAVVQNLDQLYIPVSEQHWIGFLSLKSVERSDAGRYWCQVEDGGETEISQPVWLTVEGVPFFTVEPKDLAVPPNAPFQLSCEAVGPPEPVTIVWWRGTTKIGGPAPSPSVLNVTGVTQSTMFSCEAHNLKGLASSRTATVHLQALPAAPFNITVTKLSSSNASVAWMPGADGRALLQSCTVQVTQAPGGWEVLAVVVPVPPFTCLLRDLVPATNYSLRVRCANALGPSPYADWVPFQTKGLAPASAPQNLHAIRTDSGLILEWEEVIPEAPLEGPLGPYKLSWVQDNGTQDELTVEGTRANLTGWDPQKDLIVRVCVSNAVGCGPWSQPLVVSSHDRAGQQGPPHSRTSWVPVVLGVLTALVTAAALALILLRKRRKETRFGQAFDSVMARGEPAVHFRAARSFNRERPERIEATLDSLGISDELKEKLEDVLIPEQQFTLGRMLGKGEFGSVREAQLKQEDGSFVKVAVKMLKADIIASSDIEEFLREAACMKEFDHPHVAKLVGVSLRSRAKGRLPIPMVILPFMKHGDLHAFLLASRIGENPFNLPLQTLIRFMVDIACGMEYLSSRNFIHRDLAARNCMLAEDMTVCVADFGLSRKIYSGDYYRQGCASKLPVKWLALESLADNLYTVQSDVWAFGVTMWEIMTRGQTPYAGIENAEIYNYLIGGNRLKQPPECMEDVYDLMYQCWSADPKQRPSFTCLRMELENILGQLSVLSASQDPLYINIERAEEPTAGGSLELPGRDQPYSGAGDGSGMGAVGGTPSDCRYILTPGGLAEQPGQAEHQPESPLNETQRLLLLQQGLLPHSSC
Experimental parameters: at 1 µM
Each record here notes measured residual activity.
Measured quantity: residual activity (%)

smiles_repr=Cn1nc2c3c(cccc31)C(=O)c1ccccc1-2 observed=96
smiles_repr=Cc1ccc(NC2=CC(=O)c3sc(C)nc3C2=O)cc1 observed=98
smiles_repr=COc1ccc(S(=O)(=O)N(CCO)c2ccccc2CN(C)C/C=C/c2ccc(Cl)cc2)cc1 observed=113
smiles_repr=COc1cccc(-c2cc(=O)c3ccccc3o2)c1N observed=78
smiles_repr=O=C1NC(=O)c2cc(Nc3ccc(F)cc3)c(Nc3ccc(F)cc3)cc21 observed=94
smiles_repr=Cc1nc(-c2ccccc2)c(-c2ccncc2)o1 observed=98
smiles_repr=Nc1ccc2ncnc(NCCc3ccc(Oc4ccccc4)cc3)c2c1 observed=113
smiles_repr=N#CCCc1ccc2c(c1)-c1[nH]c3ccc([N+](=O)[O-])cc3c1CC(=O)N2 observed=75
smiles_repr=O=Nc1c(-c2c(O)[nH]c3ccccc23)[nH]c2ccccc12 observed=62

====

Tested target: Misshapen-like kinase 1 (Homo sapiens)
Experimental parameters: at 10 µM
Known residual activity of a selection of compounds
Measured quantity: residual activity (%)

smiles_repr=Cn1cnc2cc3c(Nc4cccc(Br)c4)ncnc3cc21 measured_quantity="residual activity" measurement_unit=% observed=75
smiles_repr=O=C1Nc2cc(Br)ccc2/C1=C1/Nc2ccccc2/C1=N\O measured_quantity="residual activity" measurement_unit=% observed=70
smiles_repr=N#CC(C#N)=C(N)/C(C#N)=C/c1ccc(O)cc1 measured_quantity="residual activity" measurement_unit=% observed=88
smiles_repr=Cc1nc2cc3nc(-c4cccs4)cnc3cc2n1C measured_quantity="residual activity" measurement_unit=% observed=98
smiles_repr=COc1cc2ncnc(Nc3ccc(NC(=O)c4ccccc4)cc3)c2cc1OC measured_quantity="residual activity" measurement_unit=% observed=92
smiles_repr=COc1cc2ncc(-c3ccccc3)nc2cc1OC measured_quantity="residual activity" measurement_unit=% observed=62
